Where do the numbers come from? From the Human Domainome abundance scans (Beltran et al. 2025).

B1: F-BAR and double SH3 domains protein 1, residues 467 to 528; numbered along this chain, Q86WN1 (parent)
chain: RALPCPAHVVFRYQAGREDELTITEGEWLEVIEEGDADEWVKARNQHGEVGFVPERYLNFPD

- Variants of: B1
- protocol: abundance fitness (aPCA) (normalised: wild type 0, dead -1); higher = more abundant; growth selection in yeast, the domain comes from the species named
- statedConditions: Homo sapiens
observedProperty: abundance fitness
Response field accepts a number only; no unit should be typed.

Answered examples (5):
E25P :: -0.069
D36C :: -0.182
E18Y :: -0.233
A43Q :: -0.839
W28Q :: 0.026

Please report the measured abundance fitness for `P4N` -0.194

Please report the measured abundance fitness for `F11D` 0.143

Please report the measured abundance fitness for `H8F` -0.591

Please report the measured abundance fitness for `D19A` 0.092

Please report the measured abundance fitness for `R1C` -0.544
